- STUDY_TARGET: T1, factor XIIa (UniProt P00748 20-615, limits assumed)
- T1 construct: also called fXIIa
- T1 sequence (looked up): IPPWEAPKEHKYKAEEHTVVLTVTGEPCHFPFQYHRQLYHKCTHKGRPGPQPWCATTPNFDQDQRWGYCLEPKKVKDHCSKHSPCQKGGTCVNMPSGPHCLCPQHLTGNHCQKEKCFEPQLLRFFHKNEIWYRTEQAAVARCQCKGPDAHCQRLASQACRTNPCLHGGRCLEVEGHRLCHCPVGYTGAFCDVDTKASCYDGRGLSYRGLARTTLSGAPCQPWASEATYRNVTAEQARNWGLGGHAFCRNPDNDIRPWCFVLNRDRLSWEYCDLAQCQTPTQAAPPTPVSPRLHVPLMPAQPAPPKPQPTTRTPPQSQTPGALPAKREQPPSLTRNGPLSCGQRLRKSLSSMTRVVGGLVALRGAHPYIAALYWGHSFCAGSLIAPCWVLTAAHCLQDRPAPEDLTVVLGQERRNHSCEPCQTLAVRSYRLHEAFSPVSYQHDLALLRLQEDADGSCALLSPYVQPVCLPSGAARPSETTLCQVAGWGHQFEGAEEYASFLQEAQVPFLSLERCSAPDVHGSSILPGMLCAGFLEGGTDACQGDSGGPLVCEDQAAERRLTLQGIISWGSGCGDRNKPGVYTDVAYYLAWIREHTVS
- TEST_DESCRIPTION: chromogenic test (S-2302), IC50 converted by Cheng-Prusoff
No end group written: not given here.
Below: a set of entries, each annotated with reported pKi.
Schema: pKi number; meaning minus log10 of the concentration expressed in molar units.

- BINDER: "native infestin-4, fusion protein with thioredoxin I E. coli containing polyhistidine clusters (other, It says MutB differs from it at positions 9, 12 and 14 only; also called Inf4; not shown: thioredoxin I of E. coli, fusion partner; polyhistidine clusters) EVRNPCACFRNYVPVCGSDGKTYGNPCMLNCAAQTKVPGLKLVHEGRCQRSNVEQF"
  pKi: 9.00
- BINDER: "RICPRILMECSSDSDCLAECICLENGFCG (Chemically synthesised) [Luffa cylindrica trypsin inhibitor, LCTI-III]"
  pKi: 7.82
- BINDER: "infestin-4 mutant MutB, fusion protein with thioredoxin I E. coli containing polyhistidine clusters (other, not shown: large carriers; small tags and cut ends, cysteine pairing not given here; also: fusion with thioredoxin I and polyhistidine clusters, not given here) EVRNPCACTRNFVAVCGSDGKTYGNPCMLNCAAQTKVPGLKLVHEGRCQRSNVEQF"
  pKi: 9.00

Recall and state the measured pKi for corn trypsin inhibitor (other, UniProt P01088 29-138, looked up, Isolated from corn; also called CTI) SAGTSCVPGWAIPHNPLPSCRWYVTSRTCGIGPRLPWPELKRRCCRELADIPAYCRCTALSILMDGAIPPGPDAQLEGRLEDLPGCPREVQRGFAATLVTEAECNLATIS . 9.00
